System: Vero-E6
Test: primary screen, phospholipidosis by LipidTOX staining; higher = more effect of the substance
Conditions: 10 µM
Among all 5,400 compounds or so, about 190 (3.5%) showed an effect of 50% or more. Shown is part of a subset that was picked to be rich in strong results.
MEASURED_PROPERTY: result_ITMP (%)
Just the number please, in %, no unit attached.

[[record]]
molecule = "C[C@@]1(O)[C@H](O)[C@@H](CO)O[C@H]1n1cnc2c(O)nc(N)nc21"
assayed_target = "Vero-E6"
assay_result = 7.18

[[record]]
molecule = "C=C1C(=O)O[C@@H]2[C@H]3C(C)=CC[C@@]34O[C@@]4(C)CC[C@@H]12"
assayed_target = "Vero-E6"
assay_result = 2.15

[[record]]
molecule = "O=S(=O)([O-])CCCS(=O)(=O)[O-]"
assayed_target = "Vero-E6"
assay_result = -2.16

[[record]]
molecule = "COC(=O)/C=C/C(=O)N[C@@H]1CC[C@@]2(O)C3Cc4ccc(O)c5c4[C@@]2(CCN3CC2CC2)[C@H]1O5"
assayed_target = "Vero-E6"
assay_result = -2

[[record]]
molecule = "CC(C)c1ccc(C(=O)c2cccs2)c(SCCCCCCCCN(C)C)n1"
assayed_target = "Vero-E6"
assay_result = 77

[[record]]
molecule = "CNC(=O)CN1CCC(Oc2cc3c(Nc4cccc(Cl)c4F)ncnc3cc2OC)CC1"
assayed_target = "Vero-E6"
assay_result = 27.2

[[record]]
molecule = "COc1cc2c(Nc3ccc(NC(=O)c4ccccc4)cc3)ncnc2cc1OCCCN1CCOCC1"
assayed_target = "Vero-E6"
assay_result = -3.61

[[record]]
molecule = "CN1[C@@H]2CC[C@H]1C[C@@H](OC(=O)N1Cc3ccccc3NC1=O)C2"
assayed_target = "Vero-E6"
assay_result = -1.56


Attention now turns to another entry.
Quick one: result_ITMP for C[C@]12CC[C@@H](O)C[C@@H]1CC[C@@H]1[C@@H]2CC[C@]2(C)C(c3ccccc3)=CC[C@@H]12 ?
-2.07
